assay_target: GST-human TopBP1 BRCT5 A707K (human, UniProt Q92547 641-746, A707K)
Sequence (Q92547 641-746 A707K): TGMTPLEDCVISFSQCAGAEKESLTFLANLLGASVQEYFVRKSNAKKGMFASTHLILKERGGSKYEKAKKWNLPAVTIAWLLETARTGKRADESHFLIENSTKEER
assay_procedure: fluorescence polarisation
Square brackets hold non-standard residues; d marks the D form. * marks the point of attachment. FITC = O=C1OC2(c3ccc(O)cc3Oc3cc(O)ccc32)c2ccc(NC(=S)*)cc21; pS = N[C@@H](COP(=O)(O)O)C(=O)O
attribute_measured: Kd (µM)
Field format: number, assumed µM, no unit text.

Exam item: Look at this binder and give its reported Kd. {FITC}-DTDFVPP[pS]PEEII-NH2 [FITC-labelled BLM pSer304 peptide (FITC-DTDFVPPpSPEEII-NH2)]
Marked response: 70

Origin of measurements: paper PMC6044410
